- TESTED_SYSTEM: the molecule itself
- METHOD_SUMMARY: Native PAGE without DTT; self-association (ability to form multimers)
PARAMETER_MEASURED: binding result

PROTEIN	PARAMETER_MEASURED	RESULT
rABM21-AVQP (other) ASYTYTVYRDGTKIKEGLTATTFEEDGVAAGNHEYCVEVKYTAGVSPKVCKDVTVEGSNEFAAVQPLTGSSVGQKVTLKWDAPN	binding result	binds
rABM21-SSEYQ (other, also called SSEYQ variant) ASYTYTVYRDGTKIKEGLTATTFEEDGVAAGNHEYCVEVKYTAGVSPKVCKDVTVEGSSEYQPVQNLTGSSVGQKVTLKWDAPNGT	binding result	binds
rABM21 (other, also called recombinant ABM21; recombinant protein encoding ABM2(1) and ABM1(2)) ASYTYTVYRDGTKIKEGLTATTFEEDGVAAGNHEYCVEVKYTAGVSPKVCKDVTVEGSNEFAPVQNLTGSSVGQKVTLKWDAPN	binding result	binds
